All figures here come from patent US20160200799A1.

MEASURED ON: Influenza virus A/Indonesia/5/2005/PR8-IBCDC-RG2 (H5N1) (Influenza A virus A/Indonesia/5/2005/PR8-IBCDC-RG2 (H5N1))
EXPERIMENT: cell-based or functional assay
Measured Neutralizing activity (%) at 250 µg/ml, listed per entry.
ASSAY READOUT: Neutralizing activity (%) at 250 µg/ml

• Group 59 representative clone F083-351, Fab-PP-type antibody (Fab, V domains shown) VH: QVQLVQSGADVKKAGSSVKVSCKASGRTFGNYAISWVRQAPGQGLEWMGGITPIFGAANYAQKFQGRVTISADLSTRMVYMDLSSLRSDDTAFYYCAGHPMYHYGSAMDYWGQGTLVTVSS VL: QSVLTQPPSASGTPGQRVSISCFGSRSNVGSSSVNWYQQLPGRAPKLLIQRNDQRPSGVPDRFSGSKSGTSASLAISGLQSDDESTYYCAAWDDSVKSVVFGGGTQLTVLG = 5.4%
• Group 80 representative clone F083-373, Fab-PP-type antibody (Fab, V domains shown) VH: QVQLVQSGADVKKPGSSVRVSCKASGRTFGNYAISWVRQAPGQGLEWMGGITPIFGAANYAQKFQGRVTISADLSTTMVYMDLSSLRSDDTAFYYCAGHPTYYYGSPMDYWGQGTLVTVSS VL: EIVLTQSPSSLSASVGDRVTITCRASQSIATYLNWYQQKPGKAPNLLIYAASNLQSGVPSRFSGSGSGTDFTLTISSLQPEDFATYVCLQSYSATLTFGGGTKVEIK = 15.4%
• Group 54 representative clone F083-354, Fab-PP-type antibody (Fab, V domains shown) VH: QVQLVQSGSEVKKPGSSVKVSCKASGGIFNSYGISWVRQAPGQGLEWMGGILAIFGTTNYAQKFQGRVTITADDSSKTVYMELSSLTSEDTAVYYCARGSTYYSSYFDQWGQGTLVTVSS VL: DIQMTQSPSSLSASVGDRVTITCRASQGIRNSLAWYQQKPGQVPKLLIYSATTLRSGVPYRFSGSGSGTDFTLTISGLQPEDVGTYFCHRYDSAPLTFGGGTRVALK = 80.7%
• Group 51 representative clone F083-302, Fab-PP-type antibody (Fab, V domains shown) VH: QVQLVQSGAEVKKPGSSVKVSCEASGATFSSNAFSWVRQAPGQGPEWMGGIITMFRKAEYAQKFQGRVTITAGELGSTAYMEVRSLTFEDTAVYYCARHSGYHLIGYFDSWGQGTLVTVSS VL: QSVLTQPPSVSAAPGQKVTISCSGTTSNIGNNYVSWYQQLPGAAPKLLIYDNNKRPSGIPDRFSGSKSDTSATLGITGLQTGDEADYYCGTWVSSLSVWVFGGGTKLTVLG = 85.9%
• Group 65 representative clone F083-366, Fab-PP-type antibody (Fab, V domains shown) VH: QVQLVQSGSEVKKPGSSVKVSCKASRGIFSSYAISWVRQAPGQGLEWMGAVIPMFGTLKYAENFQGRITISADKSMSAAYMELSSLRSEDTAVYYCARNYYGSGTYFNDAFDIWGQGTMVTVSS VL: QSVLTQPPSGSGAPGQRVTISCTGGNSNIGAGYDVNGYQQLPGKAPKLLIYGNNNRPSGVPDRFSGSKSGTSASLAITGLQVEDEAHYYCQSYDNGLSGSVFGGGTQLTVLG = -3.9%
• Group 35 representative clone F082-117, Fab-PP-type antibody (Fab, V domains shown) VH: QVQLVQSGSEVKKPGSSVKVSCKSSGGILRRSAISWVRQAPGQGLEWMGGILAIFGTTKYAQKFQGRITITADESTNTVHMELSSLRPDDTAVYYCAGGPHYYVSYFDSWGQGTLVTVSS VL: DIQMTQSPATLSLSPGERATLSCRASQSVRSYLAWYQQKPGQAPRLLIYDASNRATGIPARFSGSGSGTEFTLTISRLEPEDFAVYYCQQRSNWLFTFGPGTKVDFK = 95.9%
• Group 55 representative clone F083-305, Fab-PP-type antibody (Fab, V domains shown) VH: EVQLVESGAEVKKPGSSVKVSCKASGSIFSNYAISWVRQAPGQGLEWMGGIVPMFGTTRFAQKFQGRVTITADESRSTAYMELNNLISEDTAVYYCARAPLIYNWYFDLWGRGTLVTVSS VL: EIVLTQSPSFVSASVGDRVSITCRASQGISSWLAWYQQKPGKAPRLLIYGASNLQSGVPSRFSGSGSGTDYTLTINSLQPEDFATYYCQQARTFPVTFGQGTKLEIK = 22.4%
• Group 42 representative clone F083-249, Fab-PP-type antibody (Fab, V domains shown) VH: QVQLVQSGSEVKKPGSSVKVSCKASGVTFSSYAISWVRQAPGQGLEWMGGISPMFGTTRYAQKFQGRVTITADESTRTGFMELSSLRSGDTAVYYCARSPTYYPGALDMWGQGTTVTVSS VL: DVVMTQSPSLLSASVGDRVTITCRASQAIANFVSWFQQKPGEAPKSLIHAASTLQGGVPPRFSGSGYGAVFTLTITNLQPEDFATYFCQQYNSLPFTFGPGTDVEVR = 98.2%
• Group 62 representative clone F083-349, Fab-PP-type antibody (Fab, V domains shown) VH: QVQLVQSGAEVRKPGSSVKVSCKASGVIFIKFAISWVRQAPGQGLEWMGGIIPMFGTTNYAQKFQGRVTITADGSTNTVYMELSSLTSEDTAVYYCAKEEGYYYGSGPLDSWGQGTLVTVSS VL: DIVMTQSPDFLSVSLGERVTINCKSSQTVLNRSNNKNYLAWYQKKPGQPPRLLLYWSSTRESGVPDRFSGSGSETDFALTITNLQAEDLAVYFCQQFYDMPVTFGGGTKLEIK = 83.9%
• Group 64 representative clone F083-301, Fab-PP-type antibody (Fab, V domains shown) VH: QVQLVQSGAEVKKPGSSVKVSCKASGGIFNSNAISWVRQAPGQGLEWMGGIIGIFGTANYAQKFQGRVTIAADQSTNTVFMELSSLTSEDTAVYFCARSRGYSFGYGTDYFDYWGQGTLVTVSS VL: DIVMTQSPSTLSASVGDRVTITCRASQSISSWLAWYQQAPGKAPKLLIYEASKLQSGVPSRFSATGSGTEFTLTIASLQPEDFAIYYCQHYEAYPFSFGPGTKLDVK = 47.1%
• Group 36 representative clone F082-243, Fab-PP-type antibody (Fab, V domains shown) VH: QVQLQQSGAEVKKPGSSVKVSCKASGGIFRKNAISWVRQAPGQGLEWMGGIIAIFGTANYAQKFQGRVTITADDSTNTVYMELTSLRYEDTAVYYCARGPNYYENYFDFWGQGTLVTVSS VL: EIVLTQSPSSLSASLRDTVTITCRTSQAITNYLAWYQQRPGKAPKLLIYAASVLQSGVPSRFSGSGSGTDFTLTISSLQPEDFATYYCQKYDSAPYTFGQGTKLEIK = 52.9%
